Target: CTL843 (SAMHT, SAM/SAH transporter) (Chlamydia trachomatis, UniProt B0B8F4)
Sequence (B0B8F4 whole entry): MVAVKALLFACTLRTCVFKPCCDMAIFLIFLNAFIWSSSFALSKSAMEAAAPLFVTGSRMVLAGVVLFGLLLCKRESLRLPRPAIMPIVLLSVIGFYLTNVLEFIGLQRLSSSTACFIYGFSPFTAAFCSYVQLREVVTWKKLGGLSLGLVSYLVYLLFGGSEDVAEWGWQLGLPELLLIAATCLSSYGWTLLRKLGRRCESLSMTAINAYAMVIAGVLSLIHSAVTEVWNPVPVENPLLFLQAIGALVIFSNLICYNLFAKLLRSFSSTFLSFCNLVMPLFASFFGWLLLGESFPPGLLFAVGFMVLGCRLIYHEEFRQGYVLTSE
Test: inhibition of […]SAM uptake in whole E. coli cells expressing CTL843
Format: cell-based
pKi: −log10 of the molar value.

{"molecule": "Nc1ncnc2c1ncn2[C@@H]1O[C@H](CSCC[C@H](N)C(=O)O)[C@@H](O)[C@H]1O [SAH, S-Adenosyl-L-homocysteine]", "study.system": "CTL843 (SAMHT, SAM/SAH transporter) (Chlamydia trachomatis, UniProt B0B8F4)", "pKi": 5.39}
